B1: CPEB3 Ribozyme (parent)
chain: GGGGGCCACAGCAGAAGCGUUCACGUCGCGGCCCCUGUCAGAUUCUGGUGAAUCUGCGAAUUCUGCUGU

Variants of: B1
assay text: self-cleavage, relative activity (ratio to wild type); higher = more cleavage; co-transcriptional
Label rule, in plain words: self-cleavage of 0.2 and up is Criterion met, under 0.2 is Criterion not met.

Ask: Item GGGGGCCAAAGCAGAAGCGUUCACGUCGCGGCCCCUGUCAGAUUCUGGUGAAUCUGCGAAUCCUGCUGU with self-cleavage of 0.2 or above?
Reply: Criterion met

Ask: Check the entry GGGGGCCACAGCAGAAGCAUUCACGUCGCGGCCCCUGUCAGAUUCUGGUGAACCUGCGAAUUCUGCUGU : does self-cleavage equal or exceed 0.2?
Reply: Criterion not met

Ask: Tell me whether self-cleavage is at least 0.2 here: GGGGGCCCCAGCAGAAGCGUUCACGUCGCGGCCCCUGUCAGAUUCUCGUGAAUCUGCGAAUUCUGCUGU
Reply: Criterion met

Ask: Confirm if self-cleavage reported for the variant GGGGGCCACAGCAGAAGCGUUCAGGUCGCGGCCCCUGUCAGAUUCUGGUGAAUCUGCGAAUUCUGCGGU is 0.2 or above.
Reply: Criterion met

Ask: Record GGGGGCCUCAGCAGAAGCGUUCACGUCGCGGCCCGUGUCAGAUUCUGGUGAAUCUGCGAAUUCUGCUGU ; criterion: self-cleavage no lower than 0.2. Met?
Reply: Criterion met

Ask: Has GGGGGCCACAGCAGCAGCGUUCACGUCGCGGCCCCUGUCAGAUUCUGGUGAAUCUGAGAAUUCUGCUGU a recorded self-cleavage greater than or equal to 0.2?
Reply: Criterion met

Ask: Determine whether this variant has self-cleavage no lower than 0.2: GGGGGCCACAGCAGAAGCGUUCACGUCGCGGCCCCUGUCAGAUUCUGGUGAAUCUGCGACUUCUUCUGU
Reply: Criterion met

Ask: Identify whether the reported self-cleavage of the following variant is 0.2 or greater: GGGGGCCAGAGCAGAAGCGUUAACGUCGCGGCCCCUGUCAGAUUCUGGUGAAUCUGCGAAUUCUGCUGU
Reply: Criterion not met

Ask: API: above_or_equal(metric=self-cleavage, cutoff=0.2) for item GGGAGCGACAGCAGAAGCGUUCACGUCGCGGCCCCUGUCAGAUUCUGGUGAAUCUGCGAAUUCUGCUGU
Reply: Criterion not met

Ask: Confirm if self-cleavage reported for the variant GGGGGCCACAGCAGAAGCGUUCACGUCGCGCCCCCUGUCAGAAUCUGGUGAAUCUGCGAAUUCUGCUGU is 0.2 or above.
Reply: Criterion not met

Ask: # bool: self-cleavage of GGGGGCCACAGCAGUAGCGUUCACGUCGCGGCCCCUGUCAGAUUCUGGUGAAUCGGCGAAUUCUGCUGU >= 0.2
Reply: Criterion met

Ask: Threshold query (self-cleavage >= 0.2) on GGGGGCCACAGCAGAAGCGUUCACGUCGCGGCCCCUGUCAGAUUCUGGGGGAUCUGCGAAUUCUGCUGU
Reply: Criterion met

Ask: I'd appreciate it if you could say whether GGGGGCCACACCAGAAGCGUUCACGUCGCGGCCCUUGUCAGAUUCUGGUGAAUCUGCGAAUUCUGCUGU has self-cleavage at least equal to 0.2.
Reply: Criterion met

Ask: Given the entry GGGGGCCACAGCAGAAGCGUUCACGUCGCUGUCCCUGUCAGAUUCUGGUGAAUCUGCGAAUUCUGCUGU , answer whether its self-cleavage meets or surpasses 0.2.
Reply: Criterion not met

Ask: Textbook exercise: given the entry GGGGGCAACAGCCGAAGCGUUCACGUCGCGGCCCCUGUCAGAUUCUGGUGAAUCUGCGAAUUCUGCUGU , state whether its self-cleavage is greater than or equal to 0.2.
Reply: Criterion met

Ask: self-cleavage >= 0.2 for GGGGACCACAGCAGAAGCGUUCACGUCGCGGCCCCUGUCAGAUUCUGGUGAAUCUGCGAAUACUGCUGU ?
Reply: Criterion met

Ask: Record GGGGGCCACAGGAGAAGCGUUCACGUCGCGGCCCCUGUCAGAUUCUGGUGAAUCUGCCAAUUCUGCUGU ; criterion: self-cleavage no lower than 0.2. Met?
Reply: Criterion met

Ask: Confirm if self-cleavage reported for the variant GGGGGCCACAGCAGAAGCGUUCACGUCGCGGGCGCUGUCAGAUUCUGGUGAAUCUGCGAAUUCUGCUGU is 0.2 or above.
Reply: Criterion met

Ask: State whether the measured self-cleavage reaches 0.2, counting equality as reaching it, for GGGGGCCACAGCAGGAGCGUUCACGUCGCGGGCCCUGUCAGAUUCUGGUGAAUCUGCGAAUUCUGCUGU
Reply: Criterion met

Ask: Decide: is the reported value of self-cleavage for GGGGGCAACAGCAGAAGCGUUCACGUCGCGGCCCCUGUCAGAUUCUGGUGAAUCUGCGAAUUCUGCUCU equal to or greater than 0.2?
Reply: Criterion met

Ask: Evaluate GGGGGCCACAGCAGAAGCGUUCACGUCGCGGCCCCUGUCAGAUUCUGGAGAACCUGCGAAUUCUGCUGU : self-cleavage at minimum 0.2?
Reply: Criterion met
